All values here come from PubChem BioAssay.

Field: composite z-score. Provide a value for each of the compounds that follow.
Molecular target: Torsin-1A (Homo sapiens)
Assay: torsin A binders from cell lysate, primary screen, small-molecule microarray, wild-type, 635/667 nm (AID 1149)
Details: COS7 hTOR1A-WT lysate, 635 nm fluorescence, higher = more signal
Numbers only.

{"columns": ["compound", "measured_metric", "measurement"],
 "data": [
  ["CCOC(=O)[C@H](CC(C)C)NC(=O)CCC1CC(OC(=O)NCCc2ccc(F)cc2)CC2(CCCC(COC(=O)NCC(c3ccccc3)c3ccccc3)O2)O1 (stereo partly drawn)", "composite z-score", -0.106]
]}

Provide the reported composite z-score of each entry below, same order.
1. CCN1C(=O)[C@H]2[C@H]3[C@H](O)[C@H](O)CC(=NO[C@@H](C)c4cn([C@H](CO)Cc5ccccc5)nn4)[C@@H]3CC[C@H]2C1=O
2. COC(=O)[C@@H]1CC[C@H](C)[C@@H](c2ccc(C)cc2)N1C(=O)c1ccc(C=NOCC[C@@H]2C=C[C@H](OC(C)=O)[C@@H](COC(C)=O)O2)cc1

Reply:
0.651
0.612
